- System: Enterovirus C
- protocol text: Incorporation of Poliovirus RNA dependent RNA polymerase into sym/sub-U primer
Attribute: Km

>  <smiles data>
Nc1nc2c(ncn2[C@@H]2O[C@H](COP(=O)(O)OP(=O)(O)OP(=O)(O)O)[C@@H](O)[C@H]2O)c(=O)[nH]1

>  <Km [µM]>
56

$$$$
>  <smiles data>
CC#Cc1cn([C@@H]2O[C@H](COP(=O)(O)OP(=O)(O)OP(=O)(O)O)[C@@H](O)[C@H]2O)nc1C(N)=O

>  <Km [µM]>
35

$$$$
>  <smiles data>
NC(=O)c1ncn([C@@H]2O[C@H](COP(=O)(O)OP(=O)(O)OP(=O)(O)O)[C@@H](O)[C@H]2O)n1

>  <Km [µM]>
34

$$$$
>  <smiles data>
NC(=O)c1nn([C@@H]2O[C@H](COP(=O)(O)OP(=O)(O)OP(=O)(O)O)[C@@H](O)[C@H]2O)cc1I

>  <Km [µM]>
24

$$$$

====

- Tested on: Enterovirus C
- protocol text: Incorporation of Poliovirus RNA dependent RNA polymerase into sym/sub-U primer
Attribute: kcat

>  <smiles data>
NC(=O)c1nn([C@@H]2O[C@H](COP(=O)(O)OP(=O)(O)OP(=O)(O)O)[C@@H](O)[C@H]2O)cc1I

>  <kcat>
4.7 10^-4/s

$$$$
>  <smiles data>
CC#Cc1cn([C@@H]2O[C@H](COP(=O)(O)OP(=O)(O)OP(=O)(O)O)[C@@H](O)[C@H]2O)nc1C(N)=O

>  <kcat>
3.1 10^-4/s

$$$$
>  <smiles data>
NC(=O)c1ncn([C@@H]2O[C@H](COP(=O)(O)OP(=O)(O)OP(=O)(O)O)[C@@H](O)[C@H]2O)n1

>  <kcat>
3.7 10^-4/s

$$$$
>  <smiles data>
Nc1nc2c(ncn2[C@@H]2O[C@H](COP(=O)(O)OP(=O)(O)OP(=O)(O)O)[C@@H](O)[C@H]2O)c(=O)[nH]1

>  <kcat>
5 10^-4/s

$$$$

====

- Tested on: Enterovirus C
- protocol text: Incorporation of Poliovirus RNA dependent RNA polymerase into sym/sub-C primer
Attribute: Km

>  <smiles data>
CC#Cc1cn([C@@H]2O[C@H](COP(=O)(O)OP(=O)(O)OP(=O)(O)O)[C@@H](O)[C@H]2O)nc1C(N)=O

>  <Km [µM]>
51

$$$$
>  <smiles data>
NC(=O)c1ncn([C@@H]2O[C@H](COP(=O)(O)OP(=O)(O)OP(=O)(O)O)[C@@H](O)[C@H]2O)n1

>  <Km [µM]>
69

$$$$
>  <smiles data>
Nc1ncnc2c1ncn2[C@@H]1O[C@H](COP(=O)(O)OP(=O)(O)OP(=O)(O)O)[C@@H](O)[C@H]1O

>  <Km [µM]>
110

$$$$
>  <smiles data>
NC(=O)c1nn([C@@H]2O[C@H](COP(=O)(O)OP(=O)(O)OP(=O)(O)O)[C@@H](O)[C@H]2O)cc1I

>  <Km [µM]>
40

$$$$

====

- Test system: Enterovirus C
- protocol text: Incorporation of Poliovirus RNA dependent RNA polymerase into sym/sub-C primer
Attribute: kcat

>  <smiles data>
NC(=O)c1ncn([C@@H]2O[C@H](COP(=O)(O)OP(=O)(O)OP(=O)(O)O)[C@@H](O)[C@H]2O)n1

>  <kcat>
5.8 10^-4/s

$$$$
>  <smiles data>
CC#Cc1cn([C@@H]2O[C@H](COP(=O)(O)OP(=O)(O)OP(=O)(O)O)[C@@H](O)[C@H]2O)nc1C(N)=O

>  <kcat>
1.3 10^-4/s

$$$$
>  <smiles data>
NC(=O)c1nn([C@@H]2O[C@H](COP(=O)(O)OP(=O)(O)OP(=O)(O)O)[C@@H](O)[C@H]2O)cc1I

>  <kcat>
1.8 10^-4/s

$$$$
>  <smiles data>
Nc1ncnc2c1ncn2[C@@H]1O[C@H](COP(=O)(O)OP(=O)(O)OP(=O)(O)O)[C@@H](O)[C@H]1O

>  <kcat>
0.82 10^-4/s

$$$$
